Biological target: T1, integrin αVβ5 (UniProt P06756 31-992; P18084 24-719)
T1 construct: Coated on the ELISA plate
T1 sequence (P06756 31-992, chain 1 of 2): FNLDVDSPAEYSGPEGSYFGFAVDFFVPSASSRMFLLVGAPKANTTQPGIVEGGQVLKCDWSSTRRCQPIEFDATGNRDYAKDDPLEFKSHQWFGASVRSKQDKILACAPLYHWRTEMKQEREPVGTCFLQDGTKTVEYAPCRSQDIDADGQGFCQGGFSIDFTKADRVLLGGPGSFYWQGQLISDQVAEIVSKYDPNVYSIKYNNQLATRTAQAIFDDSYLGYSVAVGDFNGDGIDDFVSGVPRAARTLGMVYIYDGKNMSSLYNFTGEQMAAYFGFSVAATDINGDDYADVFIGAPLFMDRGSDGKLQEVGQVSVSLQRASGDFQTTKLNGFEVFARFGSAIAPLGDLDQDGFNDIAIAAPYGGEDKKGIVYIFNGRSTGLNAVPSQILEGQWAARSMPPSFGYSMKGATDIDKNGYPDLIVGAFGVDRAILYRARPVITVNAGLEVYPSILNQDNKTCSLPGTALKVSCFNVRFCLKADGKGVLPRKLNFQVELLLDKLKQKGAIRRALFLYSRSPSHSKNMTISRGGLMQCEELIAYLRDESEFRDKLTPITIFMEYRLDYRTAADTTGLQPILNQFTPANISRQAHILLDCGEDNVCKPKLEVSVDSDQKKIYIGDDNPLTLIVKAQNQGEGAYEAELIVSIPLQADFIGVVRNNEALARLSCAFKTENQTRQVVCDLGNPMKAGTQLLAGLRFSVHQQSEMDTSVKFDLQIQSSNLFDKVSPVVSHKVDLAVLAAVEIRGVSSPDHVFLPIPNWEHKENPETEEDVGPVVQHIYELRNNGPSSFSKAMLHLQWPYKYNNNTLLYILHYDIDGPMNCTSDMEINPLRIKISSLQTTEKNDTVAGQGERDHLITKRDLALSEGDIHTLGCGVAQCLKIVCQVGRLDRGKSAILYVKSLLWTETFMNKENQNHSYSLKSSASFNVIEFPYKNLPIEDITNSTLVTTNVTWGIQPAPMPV
T1 sequence (P18084 24-719, chain 2 of 2): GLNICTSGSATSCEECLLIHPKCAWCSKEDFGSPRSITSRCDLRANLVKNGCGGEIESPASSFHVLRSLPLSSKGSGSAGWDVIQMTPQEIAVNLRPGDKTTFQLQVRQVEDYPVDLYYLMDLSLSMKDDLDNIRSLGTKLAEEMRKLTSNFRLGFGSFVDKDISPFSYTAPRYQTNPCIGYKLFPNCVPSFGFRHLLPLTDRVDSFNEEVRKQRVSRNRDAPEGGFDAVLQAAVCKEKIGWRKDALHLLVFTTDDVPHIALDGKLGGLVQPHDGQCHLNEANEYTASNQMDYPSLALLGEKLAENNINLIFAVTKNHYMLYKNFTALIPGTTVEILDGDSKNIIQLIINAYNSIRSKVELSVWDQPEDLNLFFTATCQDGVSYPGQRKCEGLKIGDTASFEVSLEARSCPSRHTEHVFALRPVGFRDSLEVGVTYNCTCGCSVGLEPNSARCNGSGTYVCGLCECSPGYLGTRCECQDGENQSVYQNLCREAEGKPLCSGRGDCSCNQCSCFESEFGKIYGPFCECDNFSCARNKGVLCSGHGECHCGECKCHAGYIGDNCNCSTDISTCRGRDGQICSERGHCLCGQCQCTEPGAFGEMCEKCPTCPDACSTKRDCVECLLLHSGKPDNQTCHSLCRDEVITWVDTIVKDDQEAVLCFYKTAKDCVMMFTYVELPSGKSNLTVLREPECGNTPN
Assay: ELISA, coated integrin, anti-MICA-HRP
Grouping rule (αvβ5 signal): low (below 0.5 OD), intermediate (0.5 OD to below 0.6 OD), high (0.6 OD or more)

Example results:
{"columns": ["BINDER", "ASSIGNED_CATEGORY"],
 "data": [
  ["soluble MICA generated from pKK50 (loop 3 insert extended 5.1sp) (designed binder, From pSW276 (no N-terminal His tag, Lys125); secreted by 293T cells; also called 3-5.1sp) EPHSLRYNLTVLSWDGSVQSGFLTEVHLDGQPFLRCDRQKCRAKPQGQWAEDVLGNKTWDRETRDLTGNGKDLRMTLAHIKDQKEGLHSLQEIRVCEIHEDNSTRSSQHFYYDGELFLSQNLETKEWTMPQSSRAQTLAMNVRNFLKEDAMKTKTHYHAMHADCLQELRRYLKSGVVLRRTVPPMVNVTRSEASEGNITVTCRASGFYPWNITLSWRQDGVSLSHDTQQWGDVLPDGNGTYQTWVATRISGGSGGGSVTRGDTFTQSSGGSGGGCYMEHSGNHSTHPVPSGK", "high"],
  ["soluble MICA generated from pKK38 (loop 1 insert 3.3) (designed binder, From pKK34 (His6, Glu125); secreted by 293T cells; also called 1-3.3) HHHHHHEPHSLRYNLTVLSWDGSVQSGFLTEVHLDGQPFLRCDRQKCRAKPQGQWAEDVLGNKTWDRETRDLTGNGKDLRMTLAHIKDQKEGLHSLQEIRVCEIHEDNSTRSSQHFYYDGELFLSQNLETEEWTMPQSSRAQTLAMNVRNFLKEDAMKTKTHYHAMHADCLQELRRYLKSGVVLRRTVPPMVNVTRVPRGDSDLTVTCRASGFYPWNITLSWRQDGVSLSHDTQQWGDVLPDGNGTYQTWVATRICQGEEQRFTCYMEHSGNHSTHPVPSGK", "low"],
  ["soluble MICA generated from pKK56 (tight loop 1 insert T-5.3) (designed binder, From pSW324 (from pKK34: His6, Glu125); secreted by 293T cells; also called 1-T-5.3) HHHHHHEPHSLRYNLTVLSWDGSVQSGFLTEVHLDGQPFLRCDRQKCRAKPQGQWAEDVLGNKTWDRETRDLTGNGKDLRMTLAHIKDQKEGLHSLQEIRVCEIHEDNSTRSSQHFYYDGELFLSQNLETEEWTMPQSSRAQTLAMNVRNFLKEDAMKTKTHYHAMHADCLQELRRYLKSGVVLRRTVPPMVNHLARGDDLTYCRASGFYPWNITLSWRQDGVSLSHDTQQWGDVLPDGNGTYQTWVATRICQGEEQRFTCYMEHSGNHSTHPVPSGK", "intermediate"],
  ["soluble MICA generated from pKK53 (tight loop 1 insert T-3.5) (designed binder, From pSW324 (from pKK34: His6, Glu125); secreted by 293T cells; also called 1-T-3.5) HHHHHHEPHSLRYNLTVLSWDGSVQSGFLTEVHLDGQPFLRCDRQKCRAKPQGQWAEDVLGNKTWDRETRDLTGNGKDLRMTLAHIKDQKEGLHSLQEIRVCEIHEDNSTRSSQHFYYDGELFLSQNLETEEWTMPQSSRAQTLAMNVRNFLKEDAMKTKTHYHAMHADCLQELRRYLKSGVVLRRTVPPMVNGSRGDSLIMHCRASGFYPWNITLSWRQDGVSLSHDTQQWGDVLPDGNGTYQTWVATRICQGEEQRFTCYMEHSGNHSTHPVPSGK", "high"],
  ["soluble MICA generated from pKK41 (loop 1 insert 5.2) (designed binder, From pKK34 (His6, Glu125); secreted by 293T cells; also called 1-5.2) HHHHHHEPHSLRYNLTVLSWDGSVQSGFLTEVHLDGQPFLRCDRQKCRAKPQGQWAEDVLGNKTWDRETRDLTGNGKDLRMTLAHIKDQKEGLHSLQEIRVCEIHEDNSTRSSQHFYYDGELFLSQNLETEEWTMPQSSRAQTLAMNVRNFLKEDAMKTKTHYHAMHADCLQELRRYLKSGVVLRRTVPPMVNVTRGDTFTQSVTCRASGFYPWNITLSWRQDGVSLSHDTQQWGDVLPDGNGTYQTWVATRICQGEEQRFTCYMEHSGNHSTHPVPSGK", "high"],
  ["soluble MICA generated from pKK42 (loop 1 insert 5.3) (designed binder, From pKK34 (His6, Glu125); secreted by 293T cells; also called 1-5.3) HHHHHHEPHSLRYNLTVLSWDGSVQSGFLTEVHLDGQPFLRCDRQKCRAKPQGQWAEDVLGNKTWDRETRDLTGNGKDLRMTLAHIKDQKEGLHSLQEIRVCEIHEDNSTRSSQHFYYDGELFLSQNLETEEWTMPQSSRAQTLAMNVRNFLKEDAMKTKTHYHAMHADCLQELRRYLKSGVVLRRTVPPMVNVTHLARGDDLTYVTCRASGFYPWNITLSWRQDGVSLSHDTQQWGDVLPDGNGTYQTWVATRICQGEEQRFTCYMEHSGNHSTHPVPSGK", "intermediate"],
  ["soluble MICA generated from pKK52 (tight loop 1 insert T-3.1) (designed binder, From pSW324 (from pKK34: His6, Glu125); secreted by 293T cells; also called 1-T-3.1) HHHHHHEPHSLRYNLTVLSWDGSVQSGFLTEVHLDGQPFLRCDRQKCRAKPQGQWAEDVLGNKTWDRETRDLTGNGKDLRMTLAHIKDQKEGLHSLQEIRVCEIHEDNSTRSSQHFYYDGELFLSQNLETEEWTMPQSSRAQTLAMNVRNFLKEDAMKTKTHYHAMHADCLQELRRYLKSGVVLRRTVPPMVNTSRGDHPRTQCRASGFYPWNITLSWRQDGVSLSHDTQQWGDVLPDGNGTYQTWVATRICQGEEQRFTCYMEHSGNHSTHPVPSGK", "low"],
  ["soluble MICA generated from pKK47 (loop 1 insert extended 5.3sp) (designed binder, From pKK34 (His6, Glu125); secreted by 293T cells; also called 1-5.3sp) HHHHHHEPHSLRYNLTVLSWDGSVQSGFLTEVHLDGQPFLRCDRQKCRAKPQGQWAEDVLGNKTWDRETRDLTGNGKDLRMTLAHIKDQKEGLHSLQEIRVCEIHEDNSTRSSQHFYYDGELFLSQNLETEEWTMPQSSRAQTLAMNVRNFLKEDAMKTKTHYHAMHADCLQELRRYLKSGVVLRRTVPPMVNVTSGGSGGGSHLARGDDLTYSGGSGGGVTCRASGFYPWNITLSWRQDGVSLSHDTQQWGDVLPDGNGTYQTWVATRICQGEEQRFTCYMEHSGNHSTHPVPSGK", "low"]
]}

Continue with the binder presented below.
Which bin should I file soluble MICA generated from pKK54 (tight loop 1 insert T-3.3) (designed binder, From pSW324 (from pKK34: His6, Glu125); secreted by 293T cells; also called 1-T-3.3) HHHHHHEPHSLRYNLTVLSWDGSVQSGFLTEVHLDGQPFLRCDRQKCRAKPQGQWAEDVLGNKTWDRETRDLTGNGKDLRMTLAHIKDQKEGLHSLQEIRVCEIHEDNSTRSSQHFYYDGELFLSQNLETEEWTMPQSSRAQTLAMNVRNFLKEDAMKTKTHYHAMHADCLQELRRYLKSGVVLRRTVPPMVNRVPRGDSDLTCRASGFYPWNITLSWRQDGVSLSHDTQQWGDVLPDGNGTYQTWVATRICQGEEQRFTCYMEHSGNHSTHPVPSGK under?
low
